Just for reference, patent US20250027068 is where these values come from.

biological target: pooled human IgG (human IgG1,2,3 and 4)
Below, each of the proteins is paired with its reported Enzyme Activity Endpoint Assay: Fab′2 value.
result type: Enzyme Activity Endpoint Assay: Fab′2 (ng/µL)

protein: PRT-101 (protein) MANQEIRYSEVTPYHVTSVWTKGVTPPAKFTQGEDVFHAPYVANQGWYDITKTFNGKDDLLCGAATAGNMLHWWFDQNKEKIEAYLKKHPDKQKIMFGDQELLDVRKVINTKGDQTNSELFNYFRDKAFPGLSARRIGVMPDLVLDMFINGYYLNVYKTQTTDVNRTYQEKDKRGGIFDAVFTRGDQSKLLTSRHDFKEKNLKEISDLIKKELTEGKALGLSHTYANVRINHVINLWGADFDSNGNLKAIYVTDSDSNASIGMKKYFVGVNSAGKVAISAKEIKEDNIGAQVLGLFTLSTGQDSWNQTN
measured number: 655
//
protein: PRT-332 (protein) MTITSVWTKGVTPPTPEDFRENNEDVLHAPYVANQGWYDITKTFDGKDNLLCGAATAGNMLHWWFDQNKEEIERYLKKHPEKQKIIFNNQEWFDVKAAIDTKDSQTNSKLFNYFRDKAFPGLSARQLGVFPDLVLDMFINGYYLNLPKTQSTDVNRPYQDKDKRGGIFDAVFTRGVQTTLLTARHDLKNKGLNEISDLIKQELTEGKALALSHTYANVRINHVINLWGADFDAEGNLIAIYVTDSDANASIGMKKYAVGVNANGKVAISAKKIEGDNIGAQVLGLFTLSTGQDIWQKLS
measured number: 409
//
protein: PRT-86 (protein) MANQEIRYSEEDPKHVTSVWTKGVTPPTDFTQGEDVLHAPYIANQGWYDITKTFNGKDDLLCGAATAGNMLHWWFDQNKEEIENYLKKHPEKQKIMFGDQELLDVRKVINTKDSQTNSKLFNYFREKAFPNLSARRLGVMPDLVLDMFINGYYLNVTKTQTTDVNRTYQTKDKRGGIFDAVFTRGDQTKLLTNRHDFKEKTLNEISDLIKQELQEGKALGLSHTYANVRINHVINLWGADFDSNGNLEAIYVTDSDANASIGMKKYFVGKNSAGKVAISAKEIKDDNIGAQVLGLFTLSTGQDIWNQTN
measured number: 4
//
protein: PRT-506 (protein) MITSVWTKGVTPPTDFIKGEDVFHAPYKAGQGWYDITKTFNGKDDLLCGAATAGNMLHWWFDQNKEEIEAYLKKHPEKQKIMFGDQELLDVRKVINTKDSQTNSALFNYFKDKAFPNLSARRLGVMPDLVLDMFINGYYLNVYKTQTTDVNRTYQTKDRRGGIFDAVFTRGDQSKLLTERHDFKEKTLKEISDLIKQELTEGKALGLSHTYANVRINHVINLWGADFDSNGNLEAIYVTDSDSNASIGMKKYFVGVNSAGKVAISAKEIKEDNIGAQVLGLFTLSTGQDIWNQTNLEHHHHHH
measured number: 1120
